Assay system: AMP-activated protein kinase, AMPK (Homo sapiens) (UniProt P54646+O43741+P54619+Q9UGJ0+Q9Y478+Q13131+Q9UGI9)
Assay notes: AMP-dependent Kinase enzyme assay. An in vitro enzyme assay that detects ADP turnover that is directly proportional to AMPK activity. This uses naive AMPK that is activated during the assay with MK-8722
Assay type: functional
Design: scale not given: direction of the effect not stated beside the values
Condition description: 30 µM
Assay endpoint: Percent Effect (%)
I only need the number, in %, no unit after it.

Example entries begin here.
Cc1cccc2cc(CNCCCN3CCOCC3)c(=O)[nH]c12 :: -2.19
CCS(=O)(=O)c1ccc(N2CCC(NC(=O)CCC(C)C)CC2)cc1 :: -6.1
CCC(C)NC(=O)c1ccccc1-n1cnnn1 (stereo not drawn) :: 0.166
CO[C@H]1CCN(C(=O)Cc2ccccn2)[C@H]1Cc1ccncc1 :: 1.42
Cc1nc(N2CCN(C)CC2)ncc1C(=O)N1CCC(O)(CO)CC1 :: 51.9

What the record says about "Cn1cc(-c2csc(CN3CCOCC3)n2)cn1" : Percent Effect is -3.9

What the record says about "Cc1cc(C)nc(N2Cc3cnn(Cc4ccc(F)cc4)c3C2)n1" : Percent Effect is 1.55

What the record says about "CCCNC(=O)c1ccc(NC(=O)c2cccc(OCC)c2)cc1" : Percent Effect is 0.466

What the record says about "CN(Cc1nccn1CC(F)(F)F)C(=O)c1ccc(F)cc1F" : Percent Effect is 5.36

What the record says about COC(=O)CCN1CCCC1c1cccc2c1OCCO2 (stereo not drawn) : Percent Effect is -0.184

What the record says about "Cc1cc2c(=O)n3c(nc2s1)CCN(Cc1ccncc1)CC3" : Percent Effect is 13.8

What the record says about "CN(C)CCN1C[C@@H]2CN(C(=O)c3ccsc3)C[C@@H]2C1=O" : Percent Effect is 0.643

What the record says about Cn1c(CC2CCS(=O)(=O)C2)nnc1SCCOc1ccccc1F (stereo not drawn) : Percent Effect is 2.63

What the record says about "CCCS(=O)(=O)N1CCC2(CC1)CN(c1ccccn1)CCO2" : Percent Effect is -4.84

What the record says about O=C1CC(c2ccccc2)c2c(n3ccsc3nc2=O)N1 (stereo not drawn) : Percent Effect is -7.29

What the record says about "Cc1ccc(CNC(=O)NCc2cccnc2N(C)C)s1" : Percent Effect is 7.34

What the record says about "Cn1cc(CNCCn2cccn2)c(-c2cccnc2)n1" : Percent Effect is -3.89

What the record says about "O=C(c1ccoc1)N1CCC2(CC1)C(=O)Nc1ccccc12" : Percent Effect is -9.89

What the record says about "NS(=O)(=O)CCNC(=O)c1ccc(-c2ccc(F)cc2)cc1F" : Percent Effect is 1.86

What the record says about O=C(O)CCc1cccc(C2CCCN2Cc2ccc(F)c(F)c2)n1 (stereo not drawn) : Percent Effect is 1.3

What the record says about "CCn1cc(CN2CCCN(C(=O)c3sccc3C#N)CC2)cn1" : Percent Effect is -2.86

What the record says about "CN1CCN(c2ncccc2CNc2ncccc2C#N)CC1" : Percent Effect is -1.66

What the record says about "Cc1ncc(CNC(=O)c2nn(C)c3c2CS(=O)(=O)CC3)s1" : Percent Effect is 3.53

What the record says about "CN(C)CC(=O)N1C[C@@H]2CC[C@H](Oc3ccccc3Cl)[C@@H]2C1" : Percent Effect is 9.46

What the record says about Cc1cc(C)nc(Nc2cccc(C3CCCN(C)C3)n2)n1 (stereo not drawn) : Percent Effect is 9.63
